Reference source: patent US11166460B2

Can you tell me inhibition at 100 µg/mL for the items I'm about to list?
# Tested on: tobacco mosaic virus (TMV)
# EXPERIMENT: Anti-TMV protective activity (protection mode), live friction inoculation on tobacco seedlings
# Format: in vivo
# COND: Tobacco mosaic virus, read-out: Anti-TMV activity, Protection effect (inhibition)
Numbers only, in %.

Hello, I would appreciate it if you could give inhibition at 100 µg/mL for each entry below.
1. O=C(N/C(=C\c1ccccc1C(F)(F)F)C(=O)N1CCC(O)(c2ccc(Br)cc2)CC1)c1ccccc1
2. O=C(N/C(=C\c1ccco1)C(=O)N1CCC(O)(c2ccc(Br)cc2)CC1)c1ccccc1

stdout:
1: 0; 2: 46

Please state, for each entry, its recorded inhibition at 100 µg/mL.
1. CC(C)(C)OC(=O)N1CCC(c2nc(/C=C(\NC(=O)c3ccccc3)C(=O)NCc3ccc(Br)cc3)cs2)CC1
2. Cc1nnsc1/C=C(\NC(=O)c1ccccc1)C(=O)N1CCC(O)(c2ccc(Br)cc2)CC1
3. O=C(O)/C(=C/c1ccccc1)NC(=O)c1cccs1
4. O=C(NCc1cccc(Br)c1)/C(=C/c1ccccc1)NC(=O)c1ccccc1
5. O=C(N/C(=C\c1cccc(C(F)(F)F)c1)C(=O)N1CCC(O)(c2ccc(Br)cc2)CC1)c1ccccc1
6. O=C(N/C(=C\c1c[nH]cn1)C(=O)N1CCC(O)(c2ccc(Br)cc2)CC1)c1ccccc1
7. Cc1snnc1/C=C(\NC(=O)c1ccccc1)C(=O)N1CCC(O)(c2ccc(Br)cc2)CC1
8. O=C(NC(Cc1ccccc1)C(=O)N1CCC(O)(c2ccc(Br)cc2)CC1)C1CC1 (stereo not shown)

stdout:
41
37
27
11
46
1
36
41
